SUBJECT_OF_TEST: Ubiquitin carboxyl-terminal hydrolase 28 (Homo sapiens) (UniProt Q96RU2)
Sequence (Q96RU2 whole entry, looked up): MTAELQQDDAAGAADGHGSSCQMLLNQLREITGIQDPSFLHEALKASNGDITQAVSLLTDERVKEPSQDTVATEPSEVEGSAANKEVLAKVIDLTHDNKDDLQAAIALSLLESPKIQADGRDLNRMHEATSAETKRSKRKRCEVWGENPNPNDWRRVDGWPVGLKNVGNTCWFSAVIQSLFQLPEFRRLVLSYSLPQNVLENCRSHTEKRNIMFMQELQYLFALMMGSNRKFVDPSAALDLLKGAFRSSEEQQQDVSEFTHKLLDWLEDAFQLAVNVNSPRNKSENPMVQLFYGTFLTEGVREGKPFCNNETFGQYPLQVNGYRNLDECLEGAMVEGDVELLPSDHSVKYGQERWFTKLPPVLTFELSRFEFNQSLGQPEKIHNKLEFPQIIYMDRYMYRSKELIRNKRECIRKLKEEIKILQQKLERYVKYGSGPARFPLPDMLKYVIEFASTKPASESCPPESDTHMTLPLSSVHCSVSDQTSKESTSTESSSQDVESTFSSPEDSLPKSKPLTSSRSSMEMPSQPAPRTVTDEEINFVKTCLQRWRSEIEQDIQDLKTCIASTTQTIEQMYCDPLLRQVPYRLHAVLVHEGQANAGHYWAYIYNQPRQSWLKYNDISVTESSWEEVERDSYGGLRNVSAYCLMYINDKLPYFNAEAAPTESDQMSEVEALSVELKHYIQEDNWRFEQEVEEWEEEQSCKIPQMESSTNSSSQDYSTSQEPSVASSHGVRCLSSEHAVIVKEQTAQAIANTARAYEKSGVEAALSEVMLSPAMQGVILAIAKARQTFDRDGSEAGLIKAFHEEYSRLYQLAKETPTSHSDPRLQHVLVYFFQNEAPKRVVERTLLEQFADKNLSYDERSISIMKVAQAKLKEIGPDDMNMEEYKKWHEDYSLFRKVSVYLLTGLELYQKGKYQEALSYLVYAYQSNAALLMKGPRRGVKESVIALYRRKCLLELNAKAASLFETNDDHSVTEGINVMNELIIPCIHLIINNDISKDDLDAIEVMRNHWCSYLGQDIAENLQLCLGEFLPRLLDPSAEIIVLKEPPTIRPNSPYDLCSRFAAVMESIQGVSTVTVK
PROCEDURE_DETAILS: Concentration-response biochemical assay confirming initial hits as inhibitors of ubiquitin-specific protease 28 (AID 1645866)
CONDITION_SUMMARY: purified USP28, ubiquitin-rhodamine fluorescence, 30 min
Activity calls are given as the source filed them.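 How the source made its calls: active means in confirmatory dose-response testing, peak deubiquitinase inhibition of 30% or more; inactive means the rest.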
Outcomes: active, inactive

COMPOUND: COc1ccc(Cn2c(=O)[nH]c3cc(C(=O)NCCCN4CCN(c5cccc(Cl)c5)CC4)ccc3c2=O)cc1
LABEL_VALUE: active
--
COMPOUND: Cc1cc(C(F)(F)F)n2nc(C3CCN(C(=O)c4cnn(C)c4C)C3)cc2n1 (stereo not given)
LABEL_VALUE: inactive
--
COMPOUND: Cc1cccc(NC(=O)Nc2ccc(C)n(CC(=O)Nc3ccccc3)c2=O)c1
LABEL_VALUE: active
--
COMPOUND: N#Cc1cn(CC(=O)N2CCc3ccccc32)c2ccccc12
LABEL_VALUE: active
--
COMPOUND: CCOC(=O)CSc1nnc(-c2cnn(-c3ccccc3)c2N)o1
LABEL_VALUE: active

----------
SUBJECT_OF_TEST: Ubiquitin carboxyl-terminal hydrolase 28 (Homo sapiens) (UniProt Q96RU2)
PROCEDURE_DETAILS: Concentration-response biochemical assay confirming initial hits as inhibitors of ubiquitin-specific protease 28 (AID 1645866)
CONDITION_SUMMARY: purified USP28, ubiquitin-rhodamine fluorescence, 30 min
Activity calls are given as the source filed them.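 Rule for the calls: active = in confirmatory dose-response testing, peak deubiquitinase inhibition of 30% or more; inactive = the rest.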
Outcomes: class 1 for active, class 0 for inactive

MOLECULE: COc1cc(OC)c2c(c1)C(=O)C1=C(COC(C)(O)C1)C2=O (stereo unspecified)
LABEL_VALUE: class 0

MOLECULE: Cc1ccn(-c2ccc(NC(=O)c3ccccc3Sc3ccccc3C#N)cc2)n1
LABEL_VALUE: class 1

MOLECULE: COc1cccc(CC(=O)Nc2cc(F)c3nc(N4CCOCC4)ccc3c2)c1
LABEL_VALUE: class 0

MOLECULE: COCCCNC(=O)Cn1c(=O)n(Cc2ccc(C(=O)NCc3ccccc3OC)cc2)c(=O)c2ccccc21
LABEL_VALUE: class 0

MOLECULE: CCCn1c(=O)c(-c2ccc(C(=O)NCc3ccc(OC)cc3)cc2)nc2cccnc21
LABEL_VALUE: class 1

MOLECULE: Cc1nn(Cc2ccccc2)c2sc(C(=O)Nc3nc4ccccc4[nH]3)cc12
LABEL_VALUE: class 1

MOLECULE: CC(=O)Nc1ccc(Cc2nc(-c3ccc4c(c3)nc(C)c(=O)n4C3CCCC3)no2)cc1
LABEL_VALUE: class 0

MOLECULE: CCc1ccc2[nH]c3c(c(=O)c2c1)CN(CC(=O)NCc1ccc2c(c1)OCO2)CC3
LABEL_VALUE: class 1

MOLECULE: CC(=O)Nc1ccc(S(=O)(=O)NCc2ccc(C(=O)NCc3ccc(C)cc3)cc2)cc1
LABEL_VALUE: class 1

MOLECULE: Cc1cccc(C)c1NC(=O)Cn1c(=O)n(CCCCC(=O)NCc2ccc3c(c2)OCO3)c(=O)c2ccccc21
LABEL_VALUE: class 1

MOLECULE: CCCNc1cc(-c2ccccc2)nc2nc(-c3cccnc3)nn12
LABEL_VALUE: class 0

MOLECULE: CCCC(=O)N1CCC2(CC1)Nc1ccccc1NC2=O
LABEL_VALUE: class 0

MOLECULE: CN(C)c1ccc(/C=N/NC(=O)c2ccc(Cl)cc2)cc1
LABEL_VALUE: class 1

MOLECULE: CC(C)(C)C(=O)[C@@H]1[C@@H](C(=O)c2ccc3c(c2)OCO3)[C@@]2(C(=O)Nc3ccccc32)[C@H]2c3ccccc3C=CN12
LABEL_VALUE: class 1

MOLECULE: Cc1cc(C)c2sc(N(CCCn3ccnc3)C(=O)Cc3ccccc3)nc2c1
LABEL_VALUE: class 1

MOLECULE: O=C1CC(C(=O)Nc2ccccc2F)n2nc(-c3ccccc3)cc2N1 (stereo unspecified)
LABEL_VALUE: class 1

MOLECULE: COc1cccc(NC(=O)C2CCC(CNS(=O)(=O)c3ccc4c(c3)C(C)(C)C(=O)N4C)CC2)c1 (stereo unspecified)
LABEL_VALUE: class 1

MOLECULE: CCNc1oc(-c2ccc(S(=O)(=O)N3CCCCC3)cc2)nc1C#N
LABEL_VALUE: class 1

MOLECULE: O=C(Nc1ccccc1)C1CCCN(C(=O)c2cc3ccccc3[nH]2)C1 (stereo unspecified)
LABEL_VALUE: class 1

MOLECULE: Cc1ccc(CNC(=O)Cn2c(=O)n(-c3ccccc3)c3ncccc32)cc1
LABEL_VALUE: class 0

MOLECULE: O=C(COC(=O)Cn1cnc2ccccc21)Nc1ccc2c(c1)OCCO2
LABEL_VALUE: class 1

MOLECULE: CCOc1ccc2cc3c(nc2c1)OC(=O)N(Cc1ccc(C)o1)C3
LABEL_VALUE: class 1

MOLECULE: Cc1nc(N2CCCC2)ncc1C(=O)Nc1ccc(F)c(F)c1
LABEL_VALUE: class 1

MOLECULE: O=C(Nc1ccc(N2CCOCC2)cc1)c1ccc(-c2ccc(N3CCCC3)nn2)cc1
LABEL_VALUE: class 0

MOLECULE: Cc1c(C(=O)c2ccccc2)c2ccccn2c1CCc1ccccn1
LABEL_VALUE: class 0

MOLECULE: Cc1cc(C)cc(-n2cnc3cc(C(=O)NCCC4=CCCCC4)ccc32)c1
LABEL_VALUE: class 1

MOLECULE: O=C1c2c(O)c(Cl)cc3c2[C@@]2(Oc4cc(Cl)c(O)c5c4[C@]3(O2)[C@@H]2O[C@@H]2C5=O)[C@@H]2O[C@H]12
LABEL_VALUE: class 1

MOLECULE: CCOc1ccc(N2C(=O)c3ccccc3C2C(=O)NCc2ccccc2OC)cc1 (stereo unspecified)
LABEL_VALUE: class 1

MOLECULE: Cc1cc(C#N)c2c(C)ccc(C(C)C)cc1-2
LABEL_VALUE: class 1

MOLECULE: CCOC(=O)C1CCN(C(=O)c2ccc3c(c2)NC(=O)C2CCCN32)CC1 (stereo unspecified)
LABEL_VALUE: class 0

MOLECULE: Cc1ccc(NC(=O)Cn2c(Nc3cccc(C)c3)nc(C)cc2=O)cc1
LABEL_VALUE: class 1

MOLECULE: COc1ccc(-c2ccnc(-c3ccc(OCc4cccc(F)c4)cc3)n2)cc1
LABEL_VALUE: class 0

MOLECULE: O=C(Nc1nc2c(ccc3ccccc32)s1)c1cccc(Br)c1
LABEL_VALUE: class 1

MOLECULE: O=C(O)c1nccnc1C(=O)N1CCc2ccccc2C1
LABEL_VALUE: class 0

MOLECULE: CCS(=O)(=O)N1CCc2cc(C(=O)Nc3ccc4c(c3)OCCO4)ccc21
LABEL_VALUE: class 1

MOLECULE: c1ccc2c(-c3nc(C4CC4)no3)nnc(NCc3ccncc3)c2c1
LABEL_VALUE: class 1

MOLECULE: O=C(NCc1ccncc1)C1CCN(c2cncnc2N2CCCCC2)CC1
LABEL_VALUE: class 1

MOLECULE: CCCc1cc(=O)n2[nH]c(COc3ccccc3)c(-c3ccccc3)c2n1
LABEL_VALUE: class 1

MOLECULE: N#Cc1c(SCCO)nc(N2CCCC2)c2c1CCCC2
LABEL_VALUE: class 1

MOLECULE: CCCCn1c(=O)c(CCC(=O)OCC(=O)Nc2ccc3c(c2)OCCO3)nc2ccccc21
LABEL_VALUE: class 1

MOLECULE: CC1=CC(=O)C(C2=C(O)C(=O)C(C)=CC2=O)=C(O)C1=O
LABEL_VALUE: class 1

----------
SUBJECT_OF_TEST: Ubiquitin carboxyl-terminal hydrolase 28 (Homo sapiens)
PROCEDURE_DETAILS: Concentration-response biochemical assay confirming initial hits as inhibitors of ubiquitin-specific protease 28 (AID 1645866)
CONDITION_SUMMARY: purified USP28, ubiquitin-rhodamine fluorescence, 30 min
The source made the active and inactive calls.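 The calls were made as follows: active = in confirmatory dose-response testing, peak deubiquitinase inhibition of 30% or more; inactive = the rest.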
Outcomes: true for active, false for inactive

COMPOUND: Oc1cc(OCc2cccc(C(F)(F)F)c2)ccc1-c1ccn[nH]1
LABEL_VALUE: true
//
COMPOUND: O=C(Nc1ccc(Oc2cccc3cccnc23)cc1)c1cccs1
LABEL_VALUE: true
//
COMPOUND: CC(OC(=O)c1ccc2c(c1)OCCO2)C(=O)NCC1CCCCC1 (stereo unspecified)
LABEL_VALUE: true
//
COMPOUND: CS(=O)(=O)N1CCCN(c2nc3cc(Cl)ccc3n3cccc23)CC1
LABEL_VALUE: false
//
COMPOUND: O=C(Cn1cc(C(=O)C(F)(F)F)c2ccccc21)N1CCc2ccccc21
LABEL_VALUE: true
//
COMPOUND: O=C(CC1C(=O)N(Cc2cccnc2)c2nc3ccccc3n21)Nc1cccc2ccccc12 (stereo unspecified)
LABEL_VALUE: false
//
COMPOUND: Cc1ccc(-c2nc(NC(=O)COc3ccc(Cl)cc3)no2)cc1
LABEL_VALUE: true
//
COMPOUND: Cc1cnnn1-c1ccc(C(=O)Nc2cc(Cl)ccc2Cl)cc1
LABEL_VALUE: true
//
COMPOUND: O=C1CC(C(=O)Nc2ccc(F)cc2)n2nc(SCc3ccccc3)nc2N1 (stereo unspecified)
LABEL_VALUE: true
//
COMPOUND: Cc1c(-c2nnc(-c3ccccn3)o2)nnn1-c1cccc(Cl)c1
LABEL_VALUE: true
//
COMPOUND: CCOC(=O)C1C(c2ccc(Br)cc2)C2(C(=O)c3ccccc3C2=O)C2C=Cc3ccccc3N12 (stereo unspecified)
LABEL_VALUE: false
